Test system: CYP3A4 (Homo sapiens)
Construct: pre-incubated with human liver microsomes and NADPH; from tissue; host or cells: human liver microsomes
Sequence (P08684 whole entry): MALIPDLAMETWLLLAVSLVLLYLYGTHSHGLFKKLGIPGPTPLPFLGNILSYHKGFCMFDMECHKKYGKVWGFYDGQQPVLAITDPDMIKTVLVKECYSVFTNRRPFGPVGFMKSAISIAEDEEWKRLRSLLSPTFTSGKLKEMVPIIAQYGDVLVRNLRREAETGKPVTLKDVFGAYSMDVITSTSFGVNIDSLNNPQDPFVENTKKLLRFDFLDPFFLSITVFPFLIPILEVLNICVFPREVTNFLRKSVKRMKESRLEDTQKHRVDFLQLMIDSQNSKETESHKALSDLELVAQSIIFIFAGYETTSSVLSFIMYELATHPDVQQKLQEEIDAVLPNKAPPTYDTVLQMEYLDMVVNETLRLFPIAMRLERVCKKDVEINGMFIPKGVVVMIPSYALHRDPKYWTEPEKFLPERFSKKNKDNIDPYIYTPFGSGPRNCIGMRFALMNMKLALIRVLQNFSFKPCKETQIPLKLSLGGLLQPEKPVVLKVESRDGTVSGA
Test description: Cytochrome P450 inhibition assay (midazolam hydroxylation)
Assay type: in vitro ADME
Setup conditions: human, human liver microsomes, probe midazolam (hydroxylation to 1′-hydroxymidazolam), 10 μM test compound, midazolam at approximately its Km
Observation type: inhibition at 10 µM (%)
Give bare numbers, in %.

Look over these answered cases.
Sample smiles: Cc1ccc(-c2cnn(C)c2)c(C(=O)N2CCC[C@@H](C)[C@H]2CNc2nnc(C(F)(F)F)s2)c1
Test system: CYP3A4 (Homo sapiens)
inhibition at 10 µM, %: 95
--
Sample smiles: Cc1ccc(-n2nccn2)c(C(=O)N2CCC[C@@H](C)[C@H]2CNc2ccc(C#N)cn2)n1
Test system: CYP3A4 (Homo sapiens)
inhibition at 10 µM, %: 37
--
Sample smiles: Cc1ccc(-n2nccn2)c(C(=O)N2CCC[C@@H](C)[C@H]2CNc2ccc(C(F)(F)F)nn2)c1
Test system: CYP3A4 (Homo sapiens)
inhibition at 10 µM, %: 59
--
Sample smiles: Cc1ccc(-c2nccn2C)c(C(=O)N2CCC[C@@H](C)[C@H]2CNc2ccc(C(F)(F)F)cn2)c1
Test system: CYP3A4 (Homo sapiens)
inhibition at 10 µM, %: 83
--
Sample smiles: C[C@@H]1CCCN(C(=O)c2cccc(F)c2-n2nccn2)[C@@H]1CNc1ccc(Cl)cn1
Test system: CYP3A4 (Homo sapiens)
inhibition at 10 µM, %: 63
--
Sample smiles: Cc1ccc(-n2nccn2)c(C(=O)N2CCC[C@@H](C)[C@H]2CNc2ncc(C(F)(F)F)cn2)c1F
Test system: CYP3A4 (Homo sapiens)
inhibition at 10 µM, %: 53

Working through the 2 molecules below one at a time, give inhibition at 10 µM for each.
1. Cc1ccc(-c2ccnc(C)c2)c(C(=O)N2CCC[C@@H](C)[C@H]2CNc2nc3cc(Cl)ccc3o2)c1
2. Cc1ccc(-c2cnn(C)c2)c(C(=O)N2CCC[C@@H](C)[C@H]2CNc2cccc(C#N)n2)c1

OUT:
1. 96
2. 95
